Provenance of the data: the supplement of paper PMC6555819

System: PPARa:RXRa (NR concentration 270 nM, RXRa partner concentration 90 nM)
experimental details: PBM binding z-score (relative to random genomic background probes); higher = stronger binding; sequences stand for … in GC…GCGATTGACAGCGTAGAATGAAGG
Tick 1 (yes) if PBM binding z-score is 2 or greater. Tick 0 (no) if PBM binding z-score is less than 2.

Please review the entries below; each comes with its answer.
GCGAATGGGGCAAAGCAGGTTACCATAAGGTTGG | 0 (no)
CCAGACAGGTGAGAAGGTAAATCAGCCTCGATTA | 0 (no)
TCTTGTAGATGAAAGGTTAAGAAAGCCGAAGCCT | 1 (yes)
TCTAGTTGGTCACGGAGGTCACACCCGACGGGTA | 1 (yes)
TCTCCTAGGTCAGTTGGTCAGCTAACGAGCTGCC | 0 (no)
AGACTGAGGTTAAGATCAGGGAAACAGAATACAT | 1 (yes)
CCTACTGGGCCAACAGGTCATTGATATCAACGTT | 1 (yes)
CTCGAAAGGTCGGTTGATGTGAGTATACGGATAA | 1 (yes)

Has CGTCCAAGATCAATGCTAGGTCAGTGAAAGCATT a recorded PBM binding z-score greater than or equal to 2?
0 (no)

Has ACAAACAGGTGAGTGAAGGTAACTCAGCTGGACG a recorded PBM binding z-score greater than or equal to 2?
0 (no)

Has CTCGAAAGGTCGTTCTCAGGTGAGTATACCAAAC a recorded PBM binding z-score greater than or equal to 2?
1 (yes)

Has TTACCAAGGTGAGCTCAGGTCGTTGATCCAACTC a recorded PBM binding z-score greater than or equal to 2?
0 (no)
